- System: SK-OV-3 ovarian
- ASSAY_PROTOCOL: NCI-60 one-dose screen, 48 h (100 = growth as untreated, 0 = no growth, -100 = all killed)
- DETAILS: 10 µM unless noted
Compounds without any hit were thinned out: in the full panel of roughly 83,000, 20% have a hit. The source made the active and inactive calls. How the source made its calls: active means growth percent below 10; inactive means the rest.
# growth per record follows

Solved cases below.
INSERT INTO assay_data (compound, target_or_system, experimental_value) VALUES
  ('CS(=O)(=O)OCCN(CCOS(C)(=O)=O)c1ccc(/C=N/Nc2ccc([N+](=O)[O-])cc2[N+](=O)[O-])cc1', 'SK-OV-3 ovarian', '101% (inactive)'),
  ('COc1cc(Nc2cc(O)c3c(=O)cc(-c4ccccc4)oc3c2)cc(OC)c1', 'SK-OV-3 ovarian', '35.9% (inactive)');

Output growth of C[C@H]1[C@H](C)CC[C@]2(CO)CC[C@]3(C)C(=CC[C@@H]4[C@@]5(C)CCCNC(C)(C)[C@@H]5CC[C@]43C)[C@H]12
69.6% (inactive)

Output growth of Cc1nc2sc(C(=O)Nc3cccc(Br)c3)c(N)c2cc1C(=O)c1ccc(C(F)(F)F)cc1
91.7% (inactive)

Output growth of COc1cc(C2NC(c3cc(OC)c(OC)c(OC)c3)C(C#N)(C#N)C2(C#N)C#N)cc(OC)c1OC (centres undefined)
102% (inactive)

Output growth of NC(=O)C1(N2CCCCC2)CCN(CCCC(=O)c2ccc(F)cc2)CC1
30.8% (inactive)

Output growth of O=C1Nc2cc(-c3ccncc3)ccc2/C1=C/c1ccc[nH]1
93.3% (inactive)

Output growth of COc1ccc(Cn2nc(-c3cc(OC)c(OC)c(OC)c3)c3c2CCc2cnoc2-3)cc1OC
47% (inactive)

Output growth of CN1CCN(CCCOc2ccc3ncnc(Nc4ccc(Oc5cccc(C(F)(F)F)c5)c(Cl)c4)c3c2)CC1
21.4% (inactive)

Output growth of Fc1ccc(-n2cc(COc3ncnc4sc5c(c34)CCCC5)nn2)cc1Cl
103% (inactive)

Output growth of O=C(/C=C/c1ccc[nH]1)c1ccc(-n2ccc(C(F)(F)F)n2)cc1
114% (inactive)

###

- System: HOP-92 NSCLC
- ASSAY_PROTOCOL: NCI-60 one-dose screen, 48 h (100 = growth as untreated, 0 = no growth, -100 = all killed)
- DETAILS: 10 µM unless noted
About 83,000 compounds went through this panel and 20% of them were active in at least one assay; those are over-represented in the sample as a whole.
VALUE_TYPE: growth (%)
The answer is to be given in %; state only the numeric part.

INSERT INTO results (compound, value_type, experimental_value) VALUES
  ('FC(F)(F)c1cccc(Nc2ccccc2)c1', 'growth', 101),
  ('COc1ccc(/C=C\c2nc3ccccc3s2)cc1OP(=O)(O)O', 'growth', 90.2);

Continue with the compound presented below.
Output growth of Fc1ccc(C2CC(c3cccc(Nc4ccncc4)c3)=NN2c2ccc(Cl)cc2)cc1 (stereo unspecified)
52.2

###

- Test system: MOLT-4 leukemia
- ASSAY_PROTOCOL: NCI-60 one-dose screen, 48 h
- DETAILS: 10 µM unless noted
About 83,000 compounds went through this panel and 20% of them were active in at least one assay; those are over-represented in the sample as a whole. The source made the active and inactive calls. Rule for the calls: active = growth percent below 10; inactive = the rest.
Answer with one of the outcomes active, inactive

Answered cases to consult:
INSERT INTO measurements (compound, target_or_system, group_label) VALUES
  ('COc1ccc2c(c1)OC1=C(C(=O)OC1)C2c1cc(OC)c(OC)c(OC)c1 (stereo not drawn)', 'MOLT-4 leukemia', 'inactive'),
  ('O=C(Nc1cccc(C2=NCCN2)c1)c1ccc(OCCCOc2ccc(C(=O)Nc3cccc(C4=NCCN4)c3)cc2)cc1', 'MOLT-4 leukemia', 'inactive'),
  ('NC(=O)c1ccc[n+](CC(=O)N2CCN(c3cc4c(cc3F)c(=O)c(C(=O)O)cn4C3CC3)CC2)c1', 'MOLT-4 leukemia', 'inactive');

What did the test return for Cc1ccc(/C=C/C(=O)c2ccc(N)cc2)c(C)c1 ?
active

What did the test return for Cc1[nH]c(C(=O)Nc2ccccc2OCc2cccc(C(=O)NCCN)c2)c(Cl)c1Cl ?
inactive

What did the test return for COc1ccccc1OCC(=O)N1CCCCCC1 ?
inactive

What did the test return for NC(=S)N/N=C(\c1ccc(Cl)cc1)C1CC1 ?
inactive

What did the test return for CCOC(=O)C1CC(=O)c2cc(OC)c(OC)cc2C1 (stereo not drawn) ?
inactive
